Target: T1, TAFV GP on VSV pseudotype particles (Tai Forest virus (TAFV), UniProt Q66810 33-676)
T1 sequence: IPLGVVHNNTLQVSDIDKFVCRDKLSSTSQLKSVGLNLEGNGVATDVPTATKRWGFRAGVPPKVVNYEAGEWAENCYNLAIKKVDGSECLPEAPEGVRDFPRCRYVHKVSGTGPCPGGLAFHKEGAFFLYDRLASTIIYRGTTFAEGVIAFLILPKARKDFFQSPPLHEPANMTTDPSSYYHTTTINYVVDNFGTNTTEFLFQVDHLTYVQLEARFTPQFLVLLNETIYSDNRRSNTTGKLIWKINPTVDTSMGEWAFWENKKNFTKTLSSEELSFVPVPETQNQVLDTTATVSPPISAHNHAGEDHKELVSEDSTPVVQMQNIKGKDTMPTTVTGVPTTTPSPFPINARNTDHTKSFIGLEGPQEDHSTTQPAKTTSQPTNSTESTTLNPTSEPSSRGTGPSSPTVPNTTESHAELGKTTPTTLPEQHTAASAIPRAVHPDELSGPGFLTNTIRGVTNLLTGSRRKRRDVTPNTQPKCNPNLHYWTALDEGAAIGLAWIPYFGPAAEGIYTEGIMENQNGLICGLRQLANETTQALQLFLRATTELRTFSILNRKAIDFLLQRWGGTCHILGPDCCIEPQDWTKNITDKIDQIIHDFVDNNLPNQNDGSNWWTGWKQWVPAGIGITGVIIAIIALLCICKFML
Experiment: cell-based or functional assay
Quick list: IC50 (nM), neutralization of rVSV-GP per entry.
Express the result in nM but write the number alone.

Consider the worked cases shown below.
PE-87 G106A (antibody, V domains shown) VH: QVQLVQSGVTLVQPGGSLRVSCAASGFTFSSYAMSWVRQAPGKGLEWVSAISGLGGSTYYADSVKGRFTISRDNSKNTLYLQMNSLRAEDTAVYYCAKDHRVWAAAYHFDYWGQGALVTVSS VL: DIVLTQSPSTLSASVGDRVTITCRASQSISSWLAWYQQKPGEAPKLLISDASSLESGVPSRFSGSGSGTEFTLTISSLQPDDFATYYCQQYYSSPTFGGGTKVEIK
0.8
PE-87 Y107A (antibody, V domains shown) VH: QVQLVQSGVTLVQPGGSLRVSCAASGFTFSSYAMSWVRQAPGKGLEWVSAISGLGGSTYYADSVKGRFTISRDNSKNTLYLQMNSLRAEDTAVYYCAKDHRVWAAGAHFDYWGQGALVTVSS VL: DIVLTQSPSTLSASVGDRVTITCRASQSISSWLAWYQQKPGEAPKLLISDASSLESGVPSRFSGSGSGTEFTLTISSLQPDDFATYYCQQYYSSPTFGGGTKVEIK
0.8

Query string: Requested field: IC50 (nM), neutralization of rVSV-GP. Item: PE-87 H100A (antibody, V domains shown) VH: QVQLVQSGVTLVQPGGSLRVSCAASGFTFSSYAMSWVRQAPGKGLEWVSAISGLGGSTYYADSVKGRFTISRDNSKNTLYLQMNSLRAEDTAVYYCAKDARVWAAGYHFDYWGQGALVTVSS VL: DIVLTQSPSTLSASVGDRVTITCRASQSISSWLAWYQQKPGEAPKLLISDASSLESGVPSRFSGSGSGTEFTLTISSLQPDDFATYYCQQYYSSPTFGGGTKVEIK
Result string: 0.8
